For each entry below, report its TGI value.
- Test system: HCT-15 colon
- Measurement Protocol: NCI tumour cell line growth inhibition, 48 h

Incoming: Given COC(=O)C(NC(=O)c1ccccc1)c1ccc(OC)c(I)c1 (configuration not stated) , respond with its TGI.
Outgoing: > 100 µM

Incoming: Supply reported TGI belonging to this compound: `Cc1cc(N(CCCl)CCCl)ccc1/C=N\NC(=O)c1cccnc1`
Outgoing: > 100 µM

Incoming: Name the recorded TGI of the compound listed here: `CCOC(=O)Oc1ccc2[nH]c3c(C)cc(N)c(C)c3c2c1`
Outgoing: > 100 µM

Incoming: # return recorded TGI for input `Cc1c(C(=O)C/C(=N/NC(=O)CC#N)C(N)=O)[n+](=O)c2ccccc2n1[O-]`
Outgoing: > 100 µM

Incoming: Indicate the recorded TGI value for this compound: `COc1cccc2c(Nc3ccc(C(=O)NCCN4CCNCC4)cc3)cc(-c3ccccc3)nc12`
Outgoing: > 100 µM

Incoming: Please supply the value of reported TGI for the item `Clc1ccc(N=CNc2ccc(-c3nc4ccccc4[nH]3)cc2)cc1`
Outgoing: > 100 µM

Incoming: Let me know recorded TGI for `Brc1ccc2c(c1)-c1ccccc1C1=NCCN12` , thanks.
Outgoing: 10.8 µM

Incoming: Give TGI for `NNC(=O)COc1nc(-c2cccs2)nc2ccc(I)cc12`
Outgoing: 56 µM

Incoming: # return recorded TGI for input `N#Cc1c(N)n(-c2nc3ccccc3s2)c(=O)c2cc([N+](=O)[O-])ccc12`
Outgoing: 19.4 µM

Incoming: Note down TGI recorded for `COc1cc(/C=C/C(=O)c2c(-c3ccc(Cl)cc3)nc3sc(C)nn23)cc(OC)c1OC`
Outgoing: > 100 µM

Incoming: Look up TGI of Clc1cc2ncn(C3CCCO3)c2cc1Cl (configuration not stated) and report it.
Outgoing: > 100 µM

Incoming: Answer with the recorded TGI of `O=C(Nc1ccccc1)Oc1ccccc1C1CCCCC1` only.
Outgoing: 40.9 µM

Incoming: Report TGI for `Nc1cc(O)c2cc(N=Nc3ccc(N=Nc4ccc(N=Nc5ccc6cc(S(=O)(=O)O)cc(S(=O)(=O)O)c6c5)c5ccccc45)c4cc(S(=O)(=O)O)ccc34)c(S(=O)(=O)O)cc2c1`
Outgoing: > 100 µM

Incoming: Find the measured TGI of COc1cc(CC2C(=O)OCC2Cc2ccc(OC)c(OC)c2)ccc1O (configuration not stated) and report it.
Outgoing: > 100 µM

Incoming: Input COc1cc(COC(=O)NC(Cc2cccs2)C(=O)O)c([N+](=O)[O-])cc1OC (configuration not stated) , output reported TGI.
Outgoing: > 100 µM

Incoming: Specify TGI for `O=C(/C=C/c1ccc(OCC(=O)N2CCN(c3ccccc3)CC2)cc1)c1ccccc1` and stop.
Outgoing: > 100 µM

Incoming: Query TGI for CC1SCCc2nc3ccccc3n21 (configuration not stated)
Outgoing: > 100 µM

Incoming: Output TGI of `CC(=O)OCc1cc2c(s1)C(=O)c1sccc1C2=O`
Outgoing: 0.303 µM

Incoming: Please look at this compound and report its TGI: `Cc1c(Cl)cc(C(C)(C)C)c(O)c1Cc1c(C)c(Cl)cc(C(C)(C)C)c1O`
Outgoing: 13.6 µM

Incoming: Report measured TGI; entry is `CC(=O)CC(=O)N1CCOC1=O`
Outgoing: > 10 µM

Incoming: # return recorded TGI for entry `Cc1cc(NS(=O)(=O)c2ccc(NC(NC(=O)OC(C)C)(C(F)(F)F)C(F)(F)F)cc2)nc(C)n1`
Outgoing: > 100 µM

Incoming: Please list TGI recorded for the compound `CC(=O)Oc1c(OC(C)C)cc(=O)n2ccsc12`
Outgoing: > 100 µM
